# Test system: CAKI-1
# TEST: NCI tumour cell line growth inhibition, 48 h
The source made the active and inactive calls. Rule as the data show it: active = GI50 up to about 1.1 µM and inactive = higher. Numbered stars: 1 amine (or outer) side, 2 acyl side, 3 side chain; on linkers, the order of the positions; unused ones are H or OH. Bridge positions count the residues as written; N and C are the ends. Square brackets hold non-standard residues; d marks the D form. Peptide text beside a SMILES is read from it. I, II: the chains in the order shown. Actinocin(9to1) = Cc1c2oc3c(C)ccc(C(=O)[*:1])c3nc-2c(C(=O)[*:2])c(N)c1=O; X48 = O=C1CC(C(=O)[*:2])N([*:1])C1; NMeV = CN[CH](C(=O)O)C(C)C; Sar = CNCC(=O)O
Returns: one label drawn from active, inactive

MOLECULE	SYSTEM_NAME	CLASS
CC1(C)C(/C=N\O)=[N+]([O-])C(C)(C)N1O	CAKI-1	inactive
Oc1cc(-c2ccccc2)nc2cc(Cl)ccc12	CAKI-1	active
CCC1(CC)CC(=NNS(=O)(=O)c2ccc(C)cc2)C1	CAKI-1	inactive
Cc1c2oc3c(C)ccc(C(=O)NC4C(=O)NC(C(C)C)C(=O)N5CC(=O)CC5C(=O)N(C)CC(=O)N(C)C(C(C)C)C(=O)OC4C)c3nc-2c(C(=O)NC2C(=O)NC(C(C)C)C(=O)N3CC(=O)CC3C(=O)N(C)CC(=O)N(C)C(C(C)C)C(=O)OC2C)c(N)c1=O (stereo unspecified) (I: TV[X48][Sar][NMeV] / II: TV[X48][Sar][NMeV]; ester I:1-I:C, II:1-II:C; linker I:N-II:N via Actinocin(9to1); configuration not given here)	CAKI-1	active

Check the results log: what was the call for O=C(OCCNC(=O)N1CC1)OCCNC(=O)N1CC1 ?
inactive

Check the results log: what was the call for COC(=O)C[S+]([O-])c1ccccc1 (stereo unspecified) ?
inactive

Check the results log: what was the call for COc1ccc([C@H]2[C@H](C)C3=Nc4ccccc4CN32)cc1 ?
inactive

Check the results log: what was the call for CC(=O)OC[C@@]1(C)[C@@H]2[C@@H]3[C@@]4(CO[C@]3(C)C(=O)[C@@]3(OC(C)=O)C[C@H](C)[C@H](OC(C)=O)[C@@H]3[C@H]4OC(C)=O)[C@H](OC(=O)c3ccccc3)C[C@@H]21 ?
inactive

Check the results log: what was the call for C#C[C@]1(O)CC[C@H]2[C@@H]3CCC4=C/C(=N/CCOC(=O)c5cccc6c(=O)c7ccccc7[nH]c56)CC[C@@H]4[C@H]3CC[C@@]21C ?
inactive

Check the results log: what was the call for COc1ccc2c(c1)CC1COc3cc(OC)ccc3C1O2 (stereo unspecified) ?
inactive

Check the results log: what was the call for COc1ccccc1OCC(=N/NC(=O)c1ccncc1)/N=C/c1ccncc1 ?
inactive

Check the results log: what was the call for COC(=O)/N=[N+](\[O-])C(c1ccccc1)c1ccccc1 ?
inactive

Check the results log: what was the call for N#C[BH2-][n+]1cn(C2CC(OP(=O)(O)OCC3OC(n4cnc5c(N)ncnc54)CC3O)C(CO)O2)c2nc(N)[nH]c(=O)c21 (stereo unspecified) ?
inactive

====

# System: HCT-15
With a cut-off of 10 µM, any GI50 strictly below it is called met; any GI50 meeting it or above is called not met.

Use the examples below as a reference point.
COMPOUND	CLASS
N#Cc1c(Cl)cc(C#N)n2c1nc1ccccc12	met
COC(=O)C[S+]([O-])c1ccccc1 (centres undefined)	not met
NC(Cc1ccc(S(=O)(=O)O)cc1)C(=O)NC(Cc1ccc(S(=O)(=O)O)cc1)C(=O)O (centres undefined)	not met
COC(=O)CCC(=O)NC1=C(Nc2ccccc2)C(=O)c2ccccc2C1=O	not met
CC(C)CC[C@H](O)[C@@H](C)[C@H]1[C@@H](OC2OC(C)C(O)C(O)C2O)C[C@H]2[C@@H]3CC=C4C[C@@H](O)CC[C@]4(C)[C@H]3[C@@H](O)C[C@]12C (some centres undefined)	not met

is_below(GI50, 10 µM) for COC1=CC(C2c3cc4c(cc3[C@@H](Nc3ccc([N+](=O)[O-])cc3)C3COC(=O)[C@H]23)OCO4)=CC(=O)C1=O (some centres undefined) ?
met

is_below(GI50, 10 µM) for CCS/C(=N\c1ccccc1)SC ?
not met

is_below(GI50, 10 µM) for C=C1C(=O)C=C2C=C3C(=O)C(C)(C)C[C@]3(O)C12C (some centres undefined) ?
met

is_below(GI50, 10 µM) for Clc1cc(OC2C3CC4CC(C3)CC2C4)nc(Cl)n1 (centres undefined) ?
not met

====

# Tested on: DMS-273
# TEST: NCI tumour cell line growth inhibition, 48 h
Calls of active or inactive are those of the source. Cut-off read from the data, not from the text of the source: active = GI50 up to about 1.1 µM and inactive = higher.
MEASUREMENT_KIND: GI50

The examples below pair each entry with its known result.
> print(dat)
                                   molecule  system.name       endpoint.value
1  Cc1cc(C)c(-n2c(-c3ccc(Br)cc3)cs/c2=N\N=C2C=C(C(C)(C)C)C(=O)C(C(C)(C)C)=C2)c(C)c1      DMS-273  > 100 µM (inactive)
2                     C1CN2CCO[SiH](O1)OCC2      DMS-273  > 100 µM (inactive)

Measured GI50 (DMS-273), entry CCOc1ccc(N(CC(=O)N2CC(=O)Nc3cc(C)c(C)cc32)C(C)=O)cc1 : > 100 µM (inactive)

====

Parameter GI50: see the listing below.
# Test system: CCRF-CEM
# TEST: NCI tumour cell line growth inhibition, 48 h
Calls of active or inactive are those of the source. Cut-off read from the data, not from the text of the source: active = GI50 up to about 1.1 µM and inactive = higher.

The examples below pair each entry with its known result.
COMPOUND	GI50
COc1ccc2cc1Oc1ccc(cc1)CC1c3cc4c(cc3CCN1C)Oc1c(OC)cc3c(c1O4)C(C2)N(C)CC3 (stereo not given)	1.32 µM (inactive)
OC(C/C(=N\N=C(/CC(O)(C(F)(F)F)C(F)(F)F)c1ccccc1)c1ccccc1)(C(F)(F)F)C(F)(F)F	> 10 µM (inactive)
CC1=Nc2nc(Cl)cn2C(=O)C1(Cl)Cl	> 10 µM (inactive)
CC(C)CC[C@H](O)[C@@H](C)[C@H]1[C@@H](OC2OC(C)C(O)C(O)C2O)C[C@H]2[C@@H]3CC=C4C[C@@H](O)CC[C@]4(C)[C@H]3[C@@H](O)C[C@]12C (stereo not given in full)	0.25 µM (active)

Measured GI50 (CCRF-CEM), entry CC1OC(c2ccc3c(c2O)C(=O)C2=C(C3=O)C3(O)C(=O)CC(C)(O)CC3(O)C=C2)CC(O)C1O (stereo not given) : 2.05 µM (inactive)

Measured GI50 (CCRF-CEM), entry CNC(=S)/N=c1/sc(NC)nc2sc3c(c12)CCCC3 : > 100 µM (inactive)

Measured GI50 (CCRF-CEM), entry O=C1OS2(OCc3cccc4cccc2c34)c2ccccc21 (stereo not given) : 40.3 µM (inactive)

Measured GI50 (CCRF-CEM), entry C1COCCOP2(N3CC3)=NP(N3CC3)(=NP(N3CC3)(N3CC3)=N2)OCCOCCO1 (stereo not given) : 77.3 µM (inactive)

Measured GI50 (CCRF-CEM), entry Cn1c2cc(O)cc(O)c2c(=O)c2c([N+](=O)[O-])cccc21 : > 100 µM (inactive)

Measured GI50 (CCRF-CEM), entry COc1cc2c(cc1OCc1ccccc1)NC(=O)[C@@H]1C[C@@H](O)CN1C2=O : > 100 µM (inactive)

====

# System: RXF 631
# TEST: NCI tumour cell line growth inhibition, 48 h
The source made the active and inactive calls. No stated cut-off is given here; in the data, active = GI50 up to about 1.1 µM and inactive = higher.
MEASUREMENT_KIND: GI50

COMPOUND	SYSTEM_NAME	GI50
[O-][S+]1c2ccccc2N=C(c2cccc3ccccc23)CC1c1cccc2ccccc12 (centres undefined)	RXF 631	36.4 µM (inactive)

Measured GI50 (RXF 631), entry N#CC(/C(=N/NC(N)=S)C(=O)Nc1cccc(Cl)c1)c1ccccc1 (centres undefined) : > 100 µM (inactive)

Measured GI50 (RXF 631), entry CCCCCCCCc1cc2c(O)c(c1)Cc1cc(CCCCCCCC)cc(c1O)Cc1cc(CCCCCCCC)cc(c1O)Cc1cc(CCCCCCCC)cc(c1O)Cc1cc(CCCCCCCC)cc(c1O)Cc1cc(CCCCCCCC)cc(c1O)C2 : > 100 µM (inactive)

Measured GI50 (RXF 631), entry [O-][S+]1Cc2ccccc2CS1 (centres undefined) : 48.9 µM (inactive)

====

# Tested on: DMS-114
# TEST: NCI tumour cell line growth inhibition, 48 h
Calls of active or inactive are those of the source. Rule as the data show it: active = GI50 up to about 1.1 µM and inactive = higher.
MEASUREMENT_KIND: GI50

The examples below pair each entry with its known result.
COMPOUND	GI50
COC(=O)[C@@]1(C)C(=O)CC[C@@H]1C=O	> 100 µM (inactive)
CCOc1ccc(NCC2CC/C(=C\c3ccccc3OC)C2=O)cc1 (configuration not stated)	9.71 µM (inactive)
Cc1cccc(NC(N)=S)c1	> 100 µM (inactive)
C[C@H](N)C(=O)N[C@@H]1[C@H]2C(=C(O)C[C@@H](O)[C@@H]2O)C(=O)O[C@@H]1C	> 100 µM (inactive)
O=C1c2ccccc2C(=O)c2c(NCCNCCO)ccc(O)c21	4.59 µM (inactive)
O=C(c1ccccc1)[C@H]1Nc2ccc(Cl)cc2[C@H]2c3ccccc3O[C@H]21	15.8 µM (inactive)

Briefly, GI50 measured for COC(=O)C1=CCS(=O)(=O)C1 : > 100 µM (inactive)

Briefly, GI50 measured for O=C1C2=C(c3ccccc31)C(c1ccc(Cl)cc1)N1C(=O)CCSC1=N2 (configuration not stated) : 67.6 µM (inactive)

Briefly, GI50 measured for O=C(/C=C/c1ccccc1)c1ccc(NCc2nc3ccccc3[nH]2)cc1 : 2.56 µM (inactive)

Briefly, GI50 measured for O=C1C2C(C(=O)N1Cc1ccccc1)N(Cc1ccccc1)C(=O)N2Cc1ccccc1 (configuration not stated) : > 100 µM (inactive)
